biological target: MaxL homodimer (Homo sapiens, UniProt P61244 1-160); experiment: universal protein-binding microarray (PBM); PBS-based mixture, 10 nM His-tagged protein dimer, 2% milk, 200 ng/uL BSA, 50 ng/uL salmon testes DNA, 0.02% TX-100; detection with Alexa 488 anti-His antibody;; high values mean tight binding; conditions: protein: recombinant; tags: C-terminal His-tag (pET21a); chain copies: 2; dsDNA, one strand shown;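 also: fluorescence intensity normalized to that of the highest-ranked 8-mer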
Sequence (P61244 whole entry): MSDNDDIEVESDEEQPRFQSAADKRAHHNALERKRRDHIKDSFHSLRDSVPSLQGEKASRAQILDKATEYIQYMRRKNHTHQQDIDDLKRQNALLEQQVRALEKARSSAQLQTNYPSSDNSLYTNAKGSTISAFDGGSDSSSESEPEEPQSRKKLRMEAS
In all, about 33,000 sequences were measured (“normalized occupancy”: median about 0.075, highest 2% from about 0.095 on). Only a selection was taken, and the highest values are over-represented in it overall.
RECORDED METRIC: binding signal (normalized occupancy)
Hi! Could you send only the number? It should be in normalized occupancy, unit omitted.

Worked examples follow.
>>> reading("AGCATCCT")
0.0767
>>> reading("ACACATTG")
0.102
>>> reading("ACACATAC")
0.0823

Alright, here's another sequence for you.
**Q:** Given the entry CAACATTA , report its measured binding signal.
**A:** 0.0824

---

Quick list: binding signal per entry.
molecular target: MaxL homodimer (Homo sapiens, UniProt P61244 1-160); assay: universal protein-binding microarray (PBM); PBS-based mixture, 10 nM His-tagged protein dimer, 2% milk, 200 ng/uL BSA, 50 ng/uL salmon testes DNA, 0.02% TX-100; detection with Alexa 488 anti-His antibody;; high values mean tight binding; details: protein: recombinant; tags: C-terminal His-tag (pET21a); chain copies: 2; dsDNA, one strand shown;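 also: fluorescence intensity normalized to that of the highest-ranked 8-mer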
Whole data set: some 33,000 sequences, median “normalized occupancy” near 0.075, cut for the highest 2% near 0.095. The sample holds the highest values, similar sequences and a random draw of the others, so the mix is not that of the screen.
Give the quantity in normalized occupancy, number only.

>>> reading("CGTACTGA")
0.0729
>>> reading("ACACAGAG")
0.0759
>>> reading("GGGGGCAC")
0.0775
>>> reading("CACGCACG")
0.096
>>> reading("GGCGCACA")
0.0793
>>> reading("TCAATAGA")
0.0745
>>> reading("CGCGCACG")
0.0959
>>> reading("AAAGCACT")
0.0757

**Q:** binding signal lookup needed for CACGCACA , thanks.
**A:** 0.0923

**Q:** Value lookup for binding signal; key = TACGCATA
**A:** 0.0842

**Q:** Give the measured binding signal of CCTTAACC .
**A:** 0.0754

**Q:** // query binding signal value for entry AAGAGGAA
**A:** 0.0726

**Q:** Need binding signal, item CACGCATA
**A:** 0.0976

**Q:** So what's the measured binding signal for this one? ACACGTGC
**A:** 0.567

**Q:** Sample CGCGCACA — what was its binding signal?
**A:** 0.0822

**Q:** Entry under review: ACACGTCT . Reported binding signal?
**A:** 0.0781

**Q:** Entry under review: AGACGTGG . Reported binding signal?
**A:** 0.0819

**Q:** Report binding signal for GCTGACGA please.
**A:** 0.072

**Q:** Record request: binding signal value, item CACGCACC
**A:** 0.0913

**Q:** What does the record list as binding signal for CACGCAAG ?
**A:** 0.0838

**Q:** Which binding signal value belongs to AACGACTG ?
**A:** 0.0722

**Q:** Look up binding signal for this sequence: ATACGTGA
**A:** 0.081

The measured values listed here are drawn from paper PMC4242493.
